// data source = patent US20240026037A1

- assayedSystem: T1, Human GPA33 (recombinant protein, Novoprotein) (human, UniProt Q99795 22-235)
- T1 construct: Bought recombinant protein immobilized on a CM5 chip; also called GPA33 antigen; tumor antigen GPA33
- T1 sequence: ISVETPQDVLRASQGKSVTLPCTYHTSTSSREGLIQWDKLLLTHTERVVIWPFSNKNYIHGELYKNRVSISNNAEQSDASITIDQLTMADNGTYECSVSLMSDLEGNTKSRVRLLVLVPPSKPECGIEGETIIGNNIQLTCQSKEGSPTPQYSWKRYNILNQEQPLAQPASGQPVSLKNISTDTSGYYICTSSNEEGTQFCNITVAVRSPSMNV
- procedureSummary: SPR (Biacore), binding to GPA33 protein; IgG format
Parameter: Kd. Scope: all listed entries.

{"columns": ["binder", "unitString", "Kd"],
 "data": [
  ["G3A_VK8+VH3 (antibody, V domains shown) VH: EVQLVESGGGLVKPGGSLRLSCAASGFAFSTYDMSWVRQAPGKGLEWVATISSGGSYTYYADSVKGRFTISRDSAKNSLYLQMNSLRAEDTAVYYCAPTTVVPFAYWGQGTLVTVSA VL: DIQMTQSPSSLSASVGDRVTITCKASQNVRTVVAWYQQKPGKAPKRLIYLASNRHTGVPSRFSGSGSGTEFTLTISNLQPEDFADYYCLQHWSYPLTFGSGTKLEVK", "nM", 1.89],
  ["G3A_VK4+VH3 (antibody, IgG1, V domains shown) VH: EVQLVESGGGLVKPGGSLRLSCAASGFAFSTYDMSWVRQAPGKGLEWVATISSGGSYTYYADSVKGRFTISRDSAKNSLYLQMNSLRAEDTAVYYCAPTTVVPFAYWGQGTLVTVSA VL: DIQMTQSPSSLSASVGDRVTITCKASQNVRTVVAWYQQKPGKAPKTLIYLASNRHTGVPSRFSGSGSGTEFTLTISNLQPEDFATYYCLQHWSYPLTFGSGTKLEVK", "nM", 0.236]
]}
